Each recorded value in this set is attributed to PubChem BioAssay (NCI).

system: M14 melanoma; assay: NCI tumour cell line growth inhibition, 48 h
observable: GI50

INSERT INTO assay_data (smi, val) VALUES
  ('COc1cccc(/C=C/c2nc3c(cnn3-c3ccccc3)c(=O)[nH]2)c1', '> 39 µM'),
  ('O=C1Nc2cc(-c3cccc(O)c3)ccc2/C1=C/c1ccc[nH]1', '1.68 µM'),
  ('O=C1CC[C@H](N2Cc3c(OCc4ccc(CN5CCOCC5)cc4)cccc3C2=O)C(=O)N1', '> 100 µM'),
  ('CCOC(=O)C(Cc1c[nH]c2cc(N(CCO)CCO)ccc12)(NC(C)=O)C(=O)OCC', '517 µM'),
  ('COc1cc(Cl)cc(-c2nn(-c3cccc(NC(=O)Nc4cccc(C(F)(F)F)c4)c3)cc2-c2ccncc2)c1', '1.34 µM');

* * *

system: ACHN renal; test: NCI tumour cell line growth inhibition, 48 h
# TGI values compiled below
observable: TGI

INSERT INTO results (compound, val) VALUES
  ('CC(C)c1ccc(C2NC(=S)NC3=C2c2ccccc2C3=O)cc1 (configuration not stated)', '> 55.9 µM'),
  ('c1csc(-c2nccc3c2[nH]c2ccccc23)c1', '73.7 µM'),
  ('CN(C)CCNCc1ccc2c(-c3ccccc3)nc3cc(Cl)c(Cl)cc3n12', '14.8 µM'),
  ('Clc1cc2ccccc2c2ccccc12', '> 100 µM'),
  ('S=C=Nc1ccc(CSc2nc3ccccc3[nH]2)cc1', '30.5 µM'),
  ('C[C@@H]1[C@H](O)CC2=C(CC[C@@H](O)C2(C)C)[C@@]1(CO)CCc1ccoc1', '> 50 µM'),
  ('COc1cc(Cl)cc(-c2nn(-c3cccc(NC(=O)Nc4cccc(C(F)(F)F)c4)c3)cc2-c2ccncc2)c1', '16.2 µM'),
  ('O=C(Nc1cccc(-n2cc(-c3ccncc3)c(-c3ccc(O)c(Cl)c3)n2)c1)c1ccc2c(c1)OCCO2', '> 100 µM'),
  ('C/C(=N\NC(=O)C[N+](C)(C)C)c1sc(-c2cccnc2)nc1C', '> 100 µM'),
  ('CCN(CC)c1c(-c2ccccc2)n[nH]c1C(=O)OC', '74.3 µM'),
  ('Clc1ccc(C2CC(c3cccc(Nc4ccncc4)c3)=NN2c2ccc(Cl)cc2)cc1 (configuration not stated)', '3 µM'),
  ('Cc1ccc(S(=O)(=O)NC(=O)NCCc2ccccc2)cc1', '> 100 µM'),
  ('O=C(c1cccc2ccccc12)C1S(=O)(=O)OCCOS1(=O)=O', '> 100 µM'),
  ('C[C@]12Cc3cnc(-c4ccccc4)nc3C[C@@H]1CC[C@@H]1[C@@H]2CC[C@@]2(C)[C@H]1CC[C@]2(C)O', '> 64.9 µM'),
  ('COc1cc2c(oc(=O)c3c4occc4cc(OC)c23)c2cccc(OCc3ccccc3)c12', '> 100 µM'),
  ('S=c1o[nH]c(-c2ccccc2)c1C=Nc1ccccc1', '> 100 µM'),
  ('Nc1c(C(=O)Nc2ccccn2)sc2nc3c(cc12)C(O)CCC3 (configuration not stated)', '> 50 µM'),
  ('N#CCCN(CCC#N)c1ccc(C(N=Nc2ccc(Cl)cc2)=Nc2ccccc2)cc1', '27.2 µM'),
  ('Cc1cccc(C)c1NC(=O)CCC/C(CC(=O)c1ccc(F)cc1)=N\NC(=O)C(=O)NN', '> 100 µM'),
  ('CCOC(=O)C(=O)Nc1cc(Cl)c(Cl)cc1Cl', '> 100 µM'),
  ('CC(C)=NNc1snnc1C(N)=O', '> 100 µM'),
  ('c1ccc2c(c1)nn1c3ccc4nonc4c3[n-][n+]21', '> 100 µM');
